Test system: pH2AX induction in HCT116 ATM−/− multicellular tumour spheroids
Experiment: Prodrug radiation sensitization in multicellular tumour spheroids (pH2AX induction following radiation)
Assay type: cell-based
Details: Homo sapiens, HCT-116, 20 Gy, 5% O2, outer layers, read-out: Prodrug 5% O2 Outer layers EC50
pEC50: −log10 of the molar value.
Quick list: pEC50 per entry.

Study these solved cases before continuing.
[[record]]
compound = "CC(c1cnc([N+](=O)[O-])n1C)N(c1cnc2cc(N3CCOCC3)nc(OC3CCC(Nc4ncc(C(F)(F)F)cn4)CC3)c2c1)S(C)(=O)=O (stereo not drawn)"
value_reported = "5.00 to 6.00"

[[record]]
compound = "CC(c1cnc([N+](=O)[O-])n1C)N(c1cnc2cc(N3CCOCC3)nc(OC3CCC(Nc4ncc(C#N)cn4)CC3)c2c1)S(C)(=O)=O (stereo not drawn)"
value_reported = "6.00 to 6.30"


The record that follows has no pEC50 shown yet.
Ask: # return pEC50 for CC(c1cnc([N+](=O)[O-])n1C)N(c1cnc2cc(N3CCOCC3)nc(OC3CCC(Nc4ncccn4)CC3)c2c1)S(C)(=O)=O (stereo not drawn) , test system: pH2AX induction in HCT116 ATM−/− multicellular tumour spheroids
Reply: 6.30 to 8.00

---

Experiment: Pharmacokinetic study in mice (IV, PO)
Assay type: in vivo, mice (C57BL/6)
Conditions: female, C57BL/6; Table D; Mouse Plasma; PO; 10 mg/kg
Readout type: AUC(0-t)

Ask: Kindly indicate its recorded AUC(0-t). Item: O=C(N[C@H]1CC[C@@H](Oc2nc(N3CCOCC3)cc3ncccc23)CC1)c1cc[nH]c1 [Compound 140]
Reply: 2140 ng·h/mL

---

Test: Pharmacokinetic study in mice (IV, PO)
Format: in vivo, mice (C57BL/6)
Details: female, C57BL/6; Table A; Mouse Plasma; IV; 3 mg/kg; read-out: AUCINF—obs
Readout type: AUC(0-inf)

Ask: Supply recorded AUC(0-inf) for O=C(N[C@H]1CC[C@@H](Oc2nc(N3CCOCC3)cc3ncccc23)CC1)c1ncccn1 here.
Reply: 2350 ng·h/mL

---

Test: Pharmacokinetic study in mice (IV, PO)
Assay type: in vivo, mice (C57BL/6)
Details: female, C57BL/6; Table D; Mouse Plasma; IV; 3 mg/kg
Readout type: half-life (h)
Numbers only; they are read as h.

Ask: Kindly indicate its recorded half-life. Item: O=C(N[C@H]1CC[C@@H](Oc2nc(N3CCOCC3)cc3ncccc23)CC1)c1cc[nH]c1
Reply: 1.13

---

Molecular target: pDNA-PK ser2056 induction in HCT116 spheroids (Homo sapiens)
Construct: endogenous in cells; host or cells: HCT116 multicellular tumour spheroids
Experiment: Multicellular tumour spheroid + radiation, pDNA-PK inhibition, HCT116
Assay type: cell-based
Details: Example 7; spheroid, cell line HCT115 [sic]; 20 Gy; 20% O2; read-out: EC50 (pDNA-PK inhibition, immunohistochemical endpoint)
Experimental: Multicellular tumour spheroids determination of compound inhibition of pDNA-PK induction following radiation. […] Multicellular tumour spheroids determination of compound inhibition of pDNA-PK induction following radiation. […] For cell survival endpoint 8 Gy radiation was used and 3 hours following radiation spheroids were dissociated, counted and plated for colony forming endpoint. […]
Readout type: EC50

Some solved entries appear below for comparison.
[[record]]
compound = "O=C(N[C@H]1CC[C@@H](Oc2nc(N3CCOCC3)cc3ncccc23)CC1)c1cc[nH]c1 [Compound 140]"
readout_type = "EC50"
value_reported = "0.01 to 0.5 µM"

[[record]]
compound = "CCOCCOc1cnc(N[C@H]2CC[C@@H](Oc3nc(N4CCOCC4)cc4ncc(Br)cc34)CC2)nc1 [Compound 18b]"
readout_type = "EC50"
value_reported = "1 to 10 µM"

[[record]]
compound = "Oc1cnc2cc(N3CCOCC3)nc(O[C@H]3CC[C@@H](Nc4ncccn4)CC3)c2c1 [Compound 19a]"
readout_type = "EC50"
value_reported = "0.5 to 1 µM"

[[record]]
compound = "Cn1cnc(N[C@H]2CC[C@@H](Oc3nc(N4CCOCC4)cc4ncccc34)CC2)n1 [Compound 31]"
readout_type = "EC50"
value_reported = "1 to 10 µM"

[[record]]
compound = "CN(C)c1ccnc(N[C@H]2CC[C@@H](Oc3nc(N4CCOCC4)cc4ncccc34)CC2)n1 [Compound 50]"
readout_type = "EC50"
value_reported = "1 to 10 µM"

[[record]]
compound = "Cn1ccc2nc(N[C@H]3CC[C@@H](Oc4nc(N5CCOCC5)cc5ncccc45)CC3)ncc21 [Compound 87]"
readout_type = "EC50"
value_reported = "0.01 to 0.5 µM"

[[record]]
compound = "CS(=O)(=O)Nc1cnc2cc(N3CCOCC3)nc(O[C@H]3CC[C@@H](NC(=O)c4ncccn4)CC3)c2c1 [Compound 177]"
readout_type = "EC50"
value_reported = "1 to 10 µM"


// next item, EC50 requested
Ask: Output reported EC50 of the compound O=C(N[C@H]1CC[C@@H](Oc2nc(N3CCOCC3)cc3ncccc23)CC1)n1cccn1 [Compound 136] on pDNA-PK ser2056 induction in HCT116 spheroids (Homo sapiens).
Reply: 1 to 10 µM
